self-cleavage for assorted variants
B1: CPEB3 Ribozyme (parent)
chain: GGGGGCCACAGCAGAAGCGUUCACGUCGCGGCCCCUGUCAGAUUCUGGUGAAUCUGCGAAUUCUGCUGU

Variants of: B1
Test: self-cleavage, relative activity (ratio to wild type); higher = more cleavage; co-transcriptional
// print number alone

residue_string | self-cleavage
GGGGGCCACAGCAGAAGCGUUCACGUCGCGGCCCCUGUCAGAUUCUGGUGAAUCUGCGAAUUUUGCUGA [C63U U69A] | 1.02
GGGGGCCACAGCAGAAGCGUUCACGUCGCGGCCCCUGUCAGAUUAUGGUGAAUCUGCGAAUUCAGCUGU [C45A U64A] | 0.821
GGGGGCCACAGCAGACGCGUUCACGUCGCGGCCCCUGUCAGAUUCUAGUGAAUCUGCGAAUUCUGCUGU [A16C G47A] | 0.303

// returns reported self-cleavage for input GGGGGCCACAGCAGAAGCGUUCACGUCGCGGCCCCAGUCAGAUCCUGGUGAAUCUGCGAAUUCUGCUGU [U36A U44C]
0.295

// returns reported self-cleavage for input GGGGGGCACAGCAGAAGCGUUCACGUCGUGGCCCCUGUCAGAUUCUGGUGAAUCUGCGAAUUCUGCUGU [C6G C29U]
0.0888

// returns reported self-cleavage for input GGGGGCCACAGCGGAAGCGUUCACGCCGCGGCCCCUGUCAGAUUCUGGUGAAUCUGCGAAUUCUGCUGU [A13G U26C]
0.78

// returns reported self-cleavage for input GGGGGCCACAGCAGAAGCGUUCAAGUCGCGGCCCCUGUCAGAUUCUGGUGAAUCUGCGAAUUCUGCUAU [C24A G68A]
0.87

// returns reported self-cleavage for input GGGGGCCACAGCAGAAGCGUUAACGGCGCGGCCCCUGUCAGAUUCUGGUGAAUCUGCGAAUUCUGCUGU [C22A U26G]
0.305

// returns reported self-cleavage for input GCGGGCCACAGCAGAAGCGUUCACGUCGCGACCCCUGUCAGAUUCUGGUGAAUCUGCGAAUUCUGCUGU [G2C G31A]
0.0545

// returns reported self-cleavage for input GGGGGCCACAGCAGAAGCGUUCACGUCGCGGCCCCUGUCAGAUCCUGGUGAAUCUGAGAAUUCUGCUGU [U44C C57A]
0.301

// returns reported self-cleavage for input GGUGGCCACAGCAGAAGCGUUCACGUCGCGUCCCCUGUCAGAUUCUGGUGAAUCUGCGAAUUCUGCUGU [G3U G31U]
0.0468

// returns reported self-cleavage for input GGGGGCCACAGCAGAAGCGUUCACGUCGCGGCCCCUGUCAGAUUCUGGUGAAACUGCGAAUUCUGGUGU [U53A C66G]
0.624

// returns reported self-cleavage for input GGGGGCCACAGCAGAAGCGUUCACGUCGCGGCCCCUGUCAGAUUCUGGUUAAUCUGCGAAUUCUGCUGC [G50U U69C]
1.09

// returns reported self-cleavage for input GGGGGCCACAGCCGAAGCGUUCACGUCGCGGCCCCUGUCAGAUUGUGGUGAAUCUGCGAAUUCUGCUGU [A13C C45G]
0.835

// returns reported self-cleavage for input GGGGGCCACAGCGGAAGCGUUCACCUCGCGGCCCCUGUCAGAUUCUGGUGAAUCUGCGAAUUCUGCUGU [A13G G25C]
0.135
